Target: GSK-3β (Homo sapiens, UniProt P49841)
Construct: gene GSK3B
Sequence (P49841 whole entry): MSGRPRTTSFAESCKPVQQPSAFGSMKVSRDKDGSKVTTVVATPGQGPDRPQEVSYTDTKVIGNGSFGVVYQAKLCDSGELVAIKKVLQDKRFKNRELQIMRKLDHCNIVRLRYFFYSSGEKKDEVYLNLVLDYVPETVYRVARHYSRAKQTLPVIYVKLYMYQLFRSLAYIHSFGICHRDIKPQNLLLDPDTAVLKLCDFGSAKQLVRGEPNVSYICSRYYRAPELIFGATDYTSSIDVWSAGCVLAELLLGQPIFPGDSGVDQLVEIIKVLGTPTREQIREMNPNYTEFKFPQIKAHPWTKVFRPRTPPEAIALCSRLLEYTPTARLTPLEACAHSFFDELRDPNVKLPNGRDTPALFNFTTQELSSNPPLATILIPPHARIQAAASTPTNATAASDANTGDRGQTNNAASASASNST
Assay: biochemical
Design: Kinase-Glo luminescent ATP-consumption assay, human recombinant GSK-3beta, GSM peptide substrate, 1 uM ATP, 30 min 37 C
Would you kindly list inhibition at 50 µM for each of these compounds?
One number for each entry, in %.

Guide cases for inhibition at 50 µM, answers given:
compound | study.target | inhibition at 50 µM (%)
CO[C@@H]1C=C[C@@]23c4cc5c(cc4[C@H](O)N(C[C@@H]2O)[C@H]3C1)OCO5 [Haemanthidine (4)] | GSK-3β (Homo sapiens, UniProt P49841) | 33
COc1c2c(cc3c1OCO3)[C@@]13CCN(C2)[C@@H]1C[C@@H](OC)[C@@H]1O[C@@H]13 [Undulatine (9)] | GSK-3β (Homo sapiens, UniProt P49841) | 43.3
COc1cc2c(cc1O)C1C(CC=C3CCN(C)C31)OC2=O (centres unmarked) [compound 23, 9-O-Demethylhomolycorine] | GSK-3β (Homo sapiens, UniProt P49841) | 63.6
O[C@H]1C=C[C@@]23c4cc5c(cc4CN(C[C@@H]2O)[C@H]3C1)OCO5 [Hamayne (5)] | GSK-3β (Homo sapiens, UniProt P49841) | 33.9
COc1c2c(cc3c1OCO3)[C@]13C=C[C@H](OC)C[C@H]1N(C2)C[C@@H]3O [Ambelline (7)] | GSK-3β (Homo sapiens, UniProt P49841) | 38

Field: inhibition at 50 µM. Fill in for each record below.
1. CC(=O)O[C@H]1[C@H]2c3cc4c(cc3CN3CCC(=C[C@@H]1O)[C@H]23)OCO4 [1-O-Acetyllycorine (16)]
2. O[C@@H]1CC=C2CCN3Cc4cc5c(cc4[C@H]1[C@@H]23)OCO5 [compound 14, Caranine]
3. COc1c2c(cc3c1OCO3)[C@@]13CCN(C2)[C@@H]1C[C@@H](O)[C@@H]1O[C@@H]13 [Crinamidine (10)]
4. COc1cc2c(cc1OC)[C@@H]1[C@H](O)[C@@H](OC)C=C3CCN(C2)[C@H]31 [Galanthine (17)]
5. O[C@H]1C=C[C@@]23CCN(Cc4cc5c(cc42)OCO5)[C@@H]3C1 [Crinine (8)]
6. CN1CCC2=CCC3OC(=O)c4cc5c(cc4C3C21)OCO5 (centres unmarked) [compound 24, Masonine]

49.9
61.8
32.1
26.4
39.6
66

Field: inhibition at 50 µM. Fill in for each record below.
1. CO[C@@H]1C=C[C@@]23c4cc5c(cc4CO[C@]2(O)CN(C)[C@H]3C1)OCO5 [Tazettine (20)]
2. O[C@H]1[C@H]2c3cc4c(cc3CN3CCC(=C[C@@H]1O)[C@H]23)OCO4 [Lycorine (15)]
3. COc1cc2c(cc1O)CN1CCC3=CC[C@@H](O)[C@@H]2[C@@H]31 [Norpluviine (19)]
4. COc1ccc2c3c1O[C@H]1CC(=O)C=C[C@@]31CCN(C)C2 [Narwedine (12)]
5. COc1cc2c(cc1OC)[C@@H](O)O[C@@H]1CC=C3CCN(C)[C@H]3[C@H]21 [Lycorenine (25)]
6. CN1CCC2=C[C@H](O)[C@H]3OC(=O)c4cc5c(cc4[C@H]3[C@@H]21)OCO5 [Hippeastrine (21)]

1. 49.2
2. 32.9
3. 45
4. 37.7
5. 47.6
6. 10.7
